target: CLK4 (Homo sapiens, UniProt Q9HAZ1)
Construct: GST-fusion or His-tag (not specified per kinase)
Sequence (Q9HAZ1 whole entry, the tested form may be a part): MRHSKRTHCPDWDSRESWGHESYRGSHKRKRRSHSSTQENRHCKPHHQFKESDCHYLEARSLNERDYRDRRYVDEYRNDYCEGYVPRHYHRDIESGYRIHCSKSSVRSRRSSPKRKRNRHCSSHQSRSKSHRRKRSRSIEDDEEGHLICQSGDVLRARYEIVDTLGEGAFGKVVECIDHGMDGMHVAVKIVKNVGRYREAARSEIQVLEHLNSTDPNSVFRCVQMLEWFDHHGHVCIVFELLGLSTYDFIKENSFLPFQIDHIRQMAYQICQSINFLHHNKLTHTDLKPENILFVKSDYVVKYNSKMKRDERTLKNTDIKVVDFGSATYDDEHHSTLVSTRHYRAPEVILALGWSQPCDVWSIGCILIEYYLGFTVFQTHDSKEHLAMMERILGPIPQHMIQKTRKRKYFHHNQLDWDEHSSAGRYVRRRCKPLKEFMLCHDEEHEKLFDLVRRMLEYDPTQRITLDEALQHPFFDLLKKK
method: Radiometric protein kinase assay (33PanQinase Activity Assay), CLK4
testParameters: read-out: IC50 on CLK4 (most potent CLK4 inhibitors)
pIC50: −log10 of the molar value.
A collection of molecules and their measured pIC50

Example entries and their recorded answers appear below.
[
  {
    "structureAsSmiles": "O=C1NC(NC23CC4CC(CC(C4)C2)C3)=N/C1=C\\c1ccc2ncccc2n1",
    "readoutType": "pIC50",
    "result": "≥ 8.00"
  },
  {
    "structureAsSmiles": "O=C1NC(NC23CC4CC(CC(O)(C4)C2)C3)=N/C1=C\\c1ccc2ncccc2c1",
    "readoutType": "pIC50",
    "result": "≥ 8.00"
  },
  {
    "structureAsSmiles": "O=C1NC(NC23CC4CC(CC2C4)C3)=N/C1=C\\c1ccc2ncccc2c1",
    "readoutType": "pIC50",
    "result": "≥ 8.00"
  },
  {
    "structureAsSmiles": "COC[C@H](NC1=N/C(=C\\c2ccc3ncccc3n2)C(=O)N1)c1ccccc1",
    "readoutType": "pIC50",
    "result": "≥ 8.00"
  },
  {
    "structureAsSmiles": "O=C1NC(NC2CCCCC2)=N/C1=C\\c1ccc2ncccc2n1",
    "readoutType": "pIC50",
    "result": "≥ 8.00"
  }
]

Please find the next molecule below.
Look up pIC50 of "O=C1NC(NC23CC4CC(CC2C4)C3)=N/C1=C\c1ccc2nccnc2c1" and report it. ≥ 8.00

Data origin: patent US20250340538A1
